B1: r16_88_TrROS_Hall (parent)
chain: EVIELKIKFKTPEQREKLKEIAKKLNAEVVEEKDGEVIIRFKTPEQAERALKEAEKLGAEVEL

variants of: B1; test: folding stability dG (cDNA display proteolysis); higher = more stable; conditions: PBS, room temperature
In this section, each of the variants is paired with its reported folding stability dG.
Hi! Could you send only the number? It should be in kcal/mol, unit omitted.

Use the examples below as a reference point.
INPUT: Param item = EVIELKIKFKTPEQREKLKEIAKKLNAEVVEEKDGEVIIRFKLPEQAERALKEAEKLGAEVEL [T43L] ; retrieve measured folding stability dG.
OUTPUT: 4.67

INPUT: State the recorded folding stability dG for this entry: EVIELKIKFKTPEQREKLKEIAKKLNAEVVEEKDCEVIIRFKTPEQAERALKEAEKLGAEVEL [G35C]
OUTPUT: 4.48

INPUT: May I ask what folding stability dG has been recorded for EVIELKIKFKTPEQREKLKEICKKLNAEVVEEKDGEVIIRFKTPEQAERALKEAEKLGAEVEL [A22C] ?
OUTPUT: 4.17

Turning now to a further variant:
INPUT: // lookup folding stability dG for EVIELKIKFKTPEQEEKLKEIAKKLNAEVVEEKDGEVIIRFKTPEQAERALKEAEKLGAEVEL [R15E]
OUTPUT: 4.31
